target: Inadl_9, Q8NI35; test: holdup assay; set-up: key: below the threshold = too weak to quantify, mostly under pKd 3.1 to 4; conditions: plain residues with an end cap or a label only (N-terminal biotin on a linker: ttds)
Sequence (Q8NI35 1530-1615): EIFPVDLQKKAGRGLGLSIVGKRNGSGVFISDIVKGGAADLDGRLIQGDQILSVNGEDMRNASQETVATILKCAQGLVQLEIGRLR
Metric: pKd

See these solved cases before continuing.
PKRPFVESNV [TANC2, Q9HCD6] | below the threshold
DPLTPSRSQL [DGKK, Q5KSL6] | below the threshold
QFQYAKESYI [TAGAP, Q8N103] | 3.5
RTRQRNETQV [HPV51-E6, P26554] | below the threshold
LCALPKVTTV [AGMAT, Q9BSE5] | 3.52

What value of pKd has been recorded for this entry: DPRNTQTSQI [ABRAXAS2, Q15018] below the threshold

Entry VNKVWDQSSV [CIT, O14578] has what pKd? below the threshold
